assay-target: Adenosine receptors; A1 & A3 (Homo sapiens) (UniProt P30542+P0DMS8)
Sequence (P0DMS8 whole entry, looked up): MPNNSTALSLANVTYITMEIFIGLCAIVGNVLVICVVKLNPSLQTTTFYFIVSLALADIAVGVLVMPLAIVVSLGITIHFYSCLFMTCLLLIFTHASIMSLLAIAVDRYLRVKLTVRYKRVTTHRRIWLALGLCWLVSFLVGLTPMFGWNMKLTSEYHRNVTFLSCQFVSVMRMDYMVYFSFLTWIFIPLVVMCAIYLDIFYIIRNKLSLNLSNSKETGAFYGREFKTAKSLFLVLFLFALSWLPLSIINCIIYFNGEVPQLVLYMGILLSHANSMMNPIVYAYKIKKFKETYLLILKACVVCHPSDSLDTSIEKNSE
Sequence (P30542 whole entry, looked up): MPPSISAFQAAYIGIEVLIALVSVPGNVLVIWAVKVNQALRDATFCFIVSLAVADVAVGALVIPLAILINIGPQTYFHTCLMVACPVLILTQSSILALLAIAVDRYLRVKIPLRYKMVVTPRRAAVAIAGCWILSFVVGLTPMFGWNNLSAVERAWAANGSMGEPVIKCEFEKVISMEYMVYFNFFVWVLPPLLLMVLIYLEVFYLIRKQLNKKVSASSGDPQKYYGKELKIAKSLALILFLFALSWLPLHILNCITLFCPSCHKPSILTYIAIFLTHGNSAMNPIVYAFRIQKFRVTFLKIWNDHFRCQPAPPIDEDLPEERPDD
test-description: Selectivity ratio of Ki for human adenosine A1 receptor to Ki for human adenosine A3 receptor
property: Ratio Ki

CCOC(=O)c1nc(N)nc2nn(CCc3ccccc3)cc12
0.19
CCOC(=O)c1nc(N)nc2nn(C(C)C)cc12
0.06

1 = CCOC(=O)c1nc(N)nc2nn(C)cc12
2 = CCOC(=O)c1nc(NC(=O)c2ccc(F)cc2)nc2nn(CC(C)(C)C)cc12
(Q) For this pair, 1 and 2 , which shows a numerically higher Ratio Ki? Kindly state the label of the option you pick.
(A) 1
(1: 9.7, 2: 0.62)

P = CCOC(=O)c1nc(NC(=O)c2ccc(F)cc2)nc2nn(C(C)C)cc12
Q = CCOC(=O)c1nc(NC(=O)c2ccc(F)cc2)nc2nn(CCc3ccccc3)cc12
R = CCOC(=O)c1nc(NC(=O)Cc2ccccc2)nc2nn(C(C)C)cc12
S = CCOC(=O)c1nc(N(C(=O)c2ccccc2)C(=O)c2ccccc2)nc2nn(C(C)C)cc12
(Q) List from greatest to least Ratio Ki. Quick reminder: the answer is the labels in the order asked.
(A) S, Q, P, R
(S: 3.2, Q: 0.73, P: 0.5, R: 0.04)

A = CCOC(=O)c1nc(NC(=O)Cc2ccccc2)nc2nn(C)cc12
B = CCOC(=O)c1nc(NC(=O)Cc2ccccc2)nc2nn(CCc3ccccc3)cc12
(Q) Between item A and item B , which reported Ratio Ki is smaller? Kindly state the label of the option you pick.
(A) B
